# Test system: human RB-null melanoma cells (A2058)
# ASSAY PROCEDURE: Cell proliferation assay (WST-1 or CellTiter-Glo) after chemotherapeutic
# RUN PARAMETERS: A2058 (CDK4/6-independent); pretreatment prior to carboplatin, etoposide or doxorubicin
OUTCOME MEASURE: protection from chemotherapy-induced cytotoxicity (cell proliferation assays)

// known answers, use as guide
- CN1CC[C@H](c2c(O)cc(O)c3c(=O)cc(-c4ccccc4Cl)oc23)[C@H](O)C1: failed to protect
- COc1ccc(F)c(F)c1C(=O)c1cnc(NC2CCN(S(C)(=O)=O)CC2)nc1N: failed to protect
- CCC(CO)Nc1nc(NCc2ccccc2)c2ncn(C(C)C)c2n1 (stereo not drawn): failed to protect
- O=c1c(-c2ccc(O)cc2)coc2cc(O)cc(O)c12: failed to protect
- O=C1NC(=O)c2c1c1c3ccccc3[nH]c1c1[nH]c3cc(Br)ccc3c21: not

Measured protection from chemotherapy-induced cytotoxicity (cell proliferation assays), `CC(=O)c1c(C)c2cnc(Nc3ccc(N4CCNCC4)cn3)nc2n(C2CCCC2)c1=O` : not

----------
# Tested on: human melanoma cells lacking INK4a/ARF (WM2664)
# ASSAY PROCEDURE: Cell proliferation assay (WST-1 or CellTiter-Glo) after chemotherapeutic
# RUN PARAMETERS: WM2664 (CDK4/6-dependent); pretreatment prior to carboplatin, etoposide or doxorubicin
OUTCOME MEASURE: protection from chemotherapy-induced cytotoxicity (cell proliferation assays)

// known answers, use as guide
* CN1CCN(Cc2ccc(Nc3ncc4cnn(C5CCCCC5)c4n3)cc2)CC1 | failed to protect
* O=c1c(-c2ccc(O)cc2)coc2cc(O)cc(O)c12 | failed to protect
* CN1CCN(c2ccc(Nc3ncc4cnn(C5CCCCC5)c4n3)cc2)CC1 | failed to protect
* CC(=O)c1c(C)c2cnc(Nc3ccc(N4CCNCC4)cn3)nc2n(C2CCCC2)c1=O | significant protection
* CN1CCN(C(=O)c2ccc(Nc3ncc4cnn(C5CCCCC5)c4n3)cc2)CC1 | failed to protect
* O=C1NC(=O)c2c1c1c3ccccc3[nH]c1c1[nH]c3cc(Br)ccc3c21 | significant protection
* CN1CC[C@H](c2c(O)cc(O)c3c(=O)cc(-c4ccccc4Cl)oc23)[C@H](O)C1 | failed to protect
* COc1ccc(F)c(F)c1C(=O)c1cnc(NC2CCN(S(C)(=O)=O)CC2)nc1N | failed to protect

Switching to the query record.
Measured protection from chemotherapy-induced cytotoxicity (cell proliferation assays), CCC(CO)Nc1nc(NCc2ccccc2)c2ncn(C(C)C)c2n1 (stereo not drawn) : failed to protect

----------
# Tested on: telomerized human diploid fibroblast (tHDF) cells (HS68)
# ASSAY PROCEDURE: Cell proliferation assay (WST-1 or CellTiter-Glo) after chemotherapeutic
# RUN PARAMETERS: HS68 (CDK4/6-dependent); pretreatment prior to carboplatin, etoposide or doxorubicin
OUTCOME MEASURE: protection from chemotherapy-induced cytotoxicity (cell proliferation assays)

// known answers, use as guide
• CN1CCN(c2ccc(Nc3ncc4cnn(C5CCCCC5)c4n3)cc2)CC1 = failed to protect
• CN1CCN(Cc2ccc(Nc3ncc4cnn(C5CCCCC5)c4n3)cc2)CC1 = failed to protect
• O=c1c(-c2ccc(O)cc2)coc2cc(O)cc(O)c12 = failed to protect
• O=C1NC(=O)c2c1c1c3ccccc3[nH]c1c1[nH]c3cc(Br)ccc3c21 = significant protection
• CC(=O)c1c(C)c2cnc(Nc3ccc(N4CCNCC4)cn3)nc2n(C2CCCC2)c1=O = significant protection

Measured protection from chemotherapy-induced cytotoxicity (cell proliferation assays), `CN1CC[C@H](c2c(O)cc(O)c3c(=O)cc(-c4ccccc4Cl)oc23)[C@H](O)C1` : failed to protect

Measured protection from chemotherapy-induced cytotoxicity (cell proliferation assays), `COc1ccc(F)c(F)c1C(=O)c1cnc(NC2CCN(S(C)(=O)=O)CC2)nc1N` : failed to protect

Measured protection from chemotherapy-induced cytotoxicity (cell proliferation assays), `CN1CCN(C(=O)c2ccc(Nc3ncc4cnn(C5CCCCC5)c4n3)cc2)CC1` : failed to protect
